Sourced from patent US8546435B2

# assayed.target: hERG channel (Homo sapiens (Human))
# Sequence (Q12809 whole entry): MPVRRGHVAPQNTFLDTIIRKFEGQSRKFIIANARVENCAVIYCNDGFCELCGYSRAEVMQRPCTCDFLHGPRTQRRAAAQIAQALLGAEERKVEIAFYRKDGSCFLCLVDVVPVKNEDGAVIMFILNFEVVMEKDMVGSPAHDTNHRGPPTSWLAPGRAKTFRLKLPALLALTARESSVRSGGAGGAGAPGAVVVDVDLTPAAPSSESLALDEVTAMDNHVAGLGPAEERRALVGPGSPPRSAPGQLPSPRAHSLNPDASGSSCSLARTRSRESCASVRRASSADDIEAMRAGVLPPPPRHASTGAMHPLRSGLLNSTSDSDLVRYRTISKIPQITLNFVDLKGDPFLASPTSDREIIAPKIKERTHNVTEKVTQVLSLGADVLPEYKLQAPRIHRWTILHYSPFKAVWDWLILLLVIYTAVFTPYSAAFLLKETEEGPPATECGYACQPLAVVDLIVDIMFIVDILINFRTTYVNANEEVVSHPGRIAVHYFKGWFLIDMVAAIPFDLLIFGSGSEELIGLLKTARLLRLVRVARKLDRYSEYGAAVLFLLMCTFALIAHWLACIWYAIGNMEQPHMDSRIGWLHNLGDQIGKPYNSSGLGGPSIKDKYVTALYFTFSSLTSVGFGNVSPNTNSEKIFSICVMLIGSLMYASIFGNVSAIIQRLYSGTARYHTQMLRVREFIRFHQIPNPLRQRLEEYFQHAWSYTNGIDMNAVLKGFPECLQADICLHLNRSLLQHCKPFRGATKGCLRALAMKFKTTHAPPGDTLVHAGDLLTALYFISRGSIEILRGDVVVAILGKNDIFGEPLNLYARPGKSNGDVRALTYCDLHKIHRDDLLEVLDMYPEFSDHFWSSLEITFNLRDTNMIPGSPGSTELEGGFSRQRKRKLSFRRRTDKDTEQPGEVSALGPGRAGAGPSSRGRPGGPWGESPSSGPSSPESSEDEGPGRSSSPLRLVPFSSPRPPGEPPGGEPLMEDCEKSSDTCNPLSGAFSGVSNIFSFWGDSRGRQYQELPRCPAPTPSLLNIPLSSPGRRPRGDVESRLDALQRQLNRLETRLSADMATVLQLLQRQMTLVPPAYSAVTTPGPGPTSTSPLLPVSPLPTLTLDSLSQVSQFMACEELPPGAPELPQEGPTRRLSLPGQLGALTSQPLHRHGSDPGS
# procedure.text: Predictor hERG Fluorescence Polarization Assay
# Type: binding
quantity.measured: hERG Predictor EC50

COc1ccc(Cn2c([C@@H](Cc3ccccc3)NC(C)=O)nnc2[C@@H](Cc2c[nH]c3ccccc23)NC(=O)[C@@H]2CNCCO2)cc1.O=C(O)C(F)(F)F	no inhibition
COc1ccc(Cn2c([C@@H](Cc3c[nH]c4ccccc34)NC(C)=O)nnc2[C@@H](Cc2c[nH]c3ccccc23)NC(=O)c2ccccn2)cc1.O=C(O)C(F)(F)F	no inhibition
COc1ccc(Cn2c([C@@H](Cc3ccccc3)NC(C)=O)nnc2[C@@H](Cc2c[nH]c3ccccc23)NC(=O)CO)cc1.O=C(O)C(F)(F)F	no inhibition
COc1ccc(Cn2c([C@@H](Cc3c[nH]c4ccccc34)NC=O)nnc2[C@@H](Cc2c[nH]c3ccccc23)NC(=O)C(C)(C)N)cc1.O=C(O)C(F)(F)F	no full dose
COc1ccc(Cn2c([C@@H](Cc3c[nH]c4ccccc34)NC(C)=O)nnc2[C@@H](Cc2c[nH]c3ccccc23)NC(=O)C(C)(C)N)cc1.O=C(O)C(F)(F)F	no inhibition
COc1ccc(Cn2c([C@@H](Cc3ccccc3)NC(C)=O)nnc2[C@@H](Cc2c[nH]c3ccccc23)NC(=O)c2ccccn2)cc1.O=C(O)C(F)(F)F	no full dose
COc1ccc(Cn2c([C@@H](Cc3ccccc3)NC=O)nnc2[C@@H](Cc2c[nH]c3ccccc23)NC(=O)c2ccccn2)cc1.O=C(O)C(F)(F)F	no full dose
